# System Name: T1, human PD-1 dimer (human PD-1-mFc or human PD-1-hFc) (human, UniProt Q15116 25-170)
# T1 construct: also called hPD-1-mFc; hPD1-hFc
# T1 sequence (Q15116 25-170 C93S): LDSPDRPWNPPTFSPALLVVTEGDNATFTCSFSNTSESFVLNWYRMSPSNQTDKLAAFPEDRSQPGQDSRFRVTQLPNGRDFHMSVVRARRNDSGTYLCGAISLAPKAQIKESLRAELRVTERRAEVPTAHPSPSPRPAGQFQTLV
# Protocol Summary: SPR, mAb captured, 37C;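 further: Real-time Biacore biosensor, PD-1 dimer flowed over anti-PD-1 antibody surface, rate constants fitted to a 1:1 model, KD derived as kd/ka and t½ as ln2/(60·kd)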
Classification field: satisfied = t½ at or over 2 h; not satisfied = t½ under 2 h.

Binder	Label Value
H1M7789N (antibody, mouse IgG1, V domains shown, Human variable regions, mouse IgG1 Fc) VH: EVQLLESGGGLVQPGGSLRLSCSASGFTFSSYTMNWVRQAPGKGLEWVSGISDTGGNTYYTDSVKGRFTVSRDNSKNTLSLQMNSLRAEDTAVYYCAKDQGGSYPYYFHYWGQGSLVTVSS VL: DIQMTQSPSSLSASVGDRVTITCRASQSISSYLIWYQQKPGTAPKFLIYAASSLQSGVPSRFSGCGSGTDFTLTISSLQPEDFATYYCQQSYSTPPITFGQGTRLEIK	satisfied

Is reported t½ greater than or equal to 2 h here: H2aM7780N (antibody, mouse IgG2a, V domains shown, Human variable regions, mouse IgG2a Fc (H2aM prefix); also called H2M7780N) VH: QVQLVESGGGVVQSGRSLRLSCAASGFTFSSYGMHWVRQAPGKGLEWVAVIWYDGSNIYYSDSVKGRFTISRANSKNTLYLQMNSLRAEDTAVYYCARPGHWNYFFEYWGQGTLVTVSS VL: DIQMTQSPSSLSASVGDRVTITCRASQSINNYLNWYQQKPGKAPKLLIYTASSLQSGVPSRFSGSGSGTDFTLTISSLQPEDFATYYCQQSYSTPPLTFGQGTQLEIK
satisfied

Could you please find out whether H4H7795N2 (antibody, human IgG4 S228P, kappa, V domains shown) VH: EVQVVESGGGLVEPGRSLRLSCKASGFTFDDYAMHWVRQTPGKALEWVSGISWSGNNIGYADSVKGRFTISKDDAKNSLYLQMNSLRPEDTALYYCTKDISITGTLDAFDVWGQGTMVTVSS VL: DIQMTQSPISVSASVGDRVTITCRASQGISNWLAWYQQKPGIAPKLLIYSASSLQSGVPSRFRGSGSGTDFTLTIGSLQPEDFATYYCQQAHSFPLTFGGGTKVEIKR has t½ that meets 2 h or exceeds it?
not satisfied

Exam item: decide whether the reported t½ for H4H7798N (antibody, human IgG4 S228P, kappa, V domains shown) VH: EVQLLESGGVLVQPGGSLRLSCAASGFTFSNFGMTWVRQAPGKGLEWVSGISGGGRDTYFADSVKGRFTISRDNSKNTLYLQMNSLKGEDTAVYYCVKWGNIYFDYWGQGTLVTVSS VL: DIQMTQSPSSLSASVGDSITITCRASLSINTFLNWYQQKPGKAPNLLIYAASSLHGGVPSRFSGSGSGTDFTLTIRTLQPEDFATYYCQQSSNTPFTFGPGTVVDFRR is at least 2 h.
not satisfied

Does the binder H2aM7796N (antibody, mouse IgG2a, V domains shown, Human variable regions, mouse IgG2a Fc; also called H2M7796N) VH: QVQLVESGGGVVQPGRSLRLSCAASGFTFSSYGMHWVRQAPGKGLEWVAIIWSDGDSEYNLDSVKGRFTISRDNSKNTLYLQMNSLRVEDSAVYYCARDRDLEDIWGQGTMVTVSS VL: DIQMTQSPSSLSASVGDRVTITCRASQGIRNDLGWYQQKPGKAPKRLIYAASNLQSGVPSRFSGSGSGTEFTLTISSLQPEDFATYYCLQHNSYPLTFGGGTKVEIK have recorded t½ that is 2 h or more?
not satisfied

API: above_or_equal(metric=t½, cutoff=2 h) for item H2aM7798N (antibody, mouse IgG2a, V domains shown, Human variable regions, mouse IgG2a Fc; also called H2M7798N) VH: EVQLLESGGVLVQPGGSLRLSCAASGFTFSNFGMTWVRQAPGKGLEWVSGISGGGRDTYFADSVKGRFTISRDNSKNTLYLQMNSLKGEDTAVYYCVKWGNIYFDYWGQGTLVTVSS VL: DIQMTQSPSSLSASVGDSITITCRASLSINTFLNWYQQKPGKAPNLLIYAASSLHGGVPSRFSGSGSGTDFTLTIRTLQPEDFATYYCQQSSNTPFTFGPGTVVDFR
satisfied

Reported t½ reaches at least 2 h for H2aM7791N (antibody, mouse IgG2a, V domains shown, Human variable regions, mouse IgG2a Fc; also called H2M7791N) VH: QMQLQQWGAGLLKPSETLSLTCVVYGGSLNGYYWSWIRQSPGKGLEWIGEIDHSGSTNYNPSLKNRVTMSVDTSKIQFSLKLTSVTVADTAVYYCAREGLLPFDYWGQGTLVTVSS VL: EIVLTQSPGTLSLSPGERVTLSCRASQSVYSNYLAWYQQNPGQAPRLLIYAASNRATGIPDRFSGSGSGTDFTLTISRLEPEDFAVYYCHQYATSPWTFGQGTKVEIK ?
not satisfied

# check: t½ of H1M7800N (antibody, mouse IgG1, V domains shown, Human variable regions, mouse IgG1 Fc) VH: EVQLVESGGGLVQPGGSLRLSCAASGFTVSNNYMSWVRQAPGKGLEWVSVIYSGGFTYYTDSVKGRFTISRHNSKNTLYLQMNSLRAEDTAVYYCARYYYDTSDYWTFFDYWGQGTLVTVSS VL: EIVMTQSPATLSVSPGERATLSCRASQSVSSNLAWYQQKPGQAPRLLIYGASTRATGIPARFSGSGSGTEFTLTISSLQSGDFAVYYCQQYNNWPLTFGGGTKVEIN is greater than or equal to 2 h
not satisfied

Could you please find out whether H2aM7795N (antibody, mouse IgG2a, V domains shown, Human variable regions, mouse IgG2a Fc; also called H2M7795N) VH: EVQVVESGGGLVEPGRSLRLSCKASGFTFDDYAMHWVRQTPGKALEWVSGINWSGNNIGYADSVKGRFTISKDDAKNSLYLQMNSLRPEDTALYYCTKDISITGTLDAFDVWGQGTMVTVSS VL: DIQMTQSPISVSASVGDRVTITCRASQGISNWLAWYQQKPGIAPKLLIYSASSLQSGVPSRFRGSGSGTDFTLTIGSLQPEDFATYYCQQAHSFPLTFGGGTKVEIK has t½ that meets 2 h or exceeds it?
satisfied

Hi team, for H1M7799N (antibody, mouse IgG1, V domains shown, Human variable regions, mouse IgG1 Fc) VH: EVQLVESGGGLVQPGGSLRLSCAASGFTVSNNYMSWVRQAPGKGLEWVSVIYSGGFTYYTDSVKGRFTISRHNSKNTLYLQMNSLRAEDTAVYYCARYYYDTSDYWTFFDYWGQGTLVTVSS VL: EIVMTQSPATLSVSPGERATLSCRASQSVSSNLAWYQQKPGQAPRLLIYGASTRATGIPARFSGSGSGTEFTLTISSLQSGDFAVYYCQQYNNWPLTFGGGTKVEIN , is the recorded t½ at or above 2 h?
not satisfied
